Measured Dissociation % by item
Biological target: T1, recombinant human IL4Rα-his protein (in house made) (human, UniProt P24394 26-232, limits assumed)
T1 construct: also called Human IL4Ra-his
Test: SPR (Biacore), antibody captured, IL4Rα-his flowed
Please respond with the number in % and leave the unit unwritten.

Here are 4 binders together with their reported answers.
huC2C1A1A1-V13 (antibody, human IgG4 S228P, kappa, V domains shown, Humanized, human IgG4/kappa) VH: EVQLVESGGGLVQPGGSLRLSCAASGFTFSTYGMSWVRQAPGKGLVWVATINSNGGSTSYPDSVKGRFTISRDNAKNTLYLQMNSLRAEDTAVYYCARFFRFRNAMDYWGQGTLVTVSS VL: DIQMTQSPSSLSASVGDRVTITCRTSENIYSYLAWYQQKPGKAPKLLIYNAKTLAEGVPSRFSGSGSGTDFTLTISSLQPEDFATYYCQHYYGPPTWTFGQGTKVEIKR ... 0.82
huC2C1A1A1-V9 (antibody, human IgG4 S228P, kappa, V domains shown, Humanized, human IgG4/kappa) VH: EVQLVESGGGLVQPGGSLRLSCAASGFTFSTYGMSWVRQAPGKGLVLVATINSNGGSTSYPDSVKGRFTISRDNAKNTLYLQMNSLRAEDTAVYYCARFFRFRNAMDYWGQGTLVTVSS VL: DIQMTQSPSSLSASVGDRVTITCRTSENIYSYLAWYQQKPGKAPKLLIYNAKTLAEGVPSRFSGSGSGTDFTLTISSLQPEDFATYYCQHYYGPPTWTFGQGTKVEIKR ... -0.24
huC2C1A1A1-V16 (antibody, human IgG4 S228P, kappa, V domains shown, Humanized, human IgG4/kappa) VH: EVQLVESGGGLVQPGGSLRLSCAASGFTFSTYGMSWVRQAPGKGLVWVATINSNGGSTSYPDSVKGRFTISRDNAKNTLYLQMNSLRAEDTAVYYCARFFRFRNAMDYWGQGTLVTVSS VL: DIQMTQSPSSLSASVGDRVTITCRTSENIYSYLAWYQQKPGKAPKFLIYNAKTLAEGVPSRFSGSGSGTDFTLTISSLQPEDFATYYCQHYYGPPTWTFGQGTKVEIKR ... -0.42
huC2C1A1A1-V15 (antibody, human IgG4, V domains shown, Humanized, human IgG4/kappa) VH: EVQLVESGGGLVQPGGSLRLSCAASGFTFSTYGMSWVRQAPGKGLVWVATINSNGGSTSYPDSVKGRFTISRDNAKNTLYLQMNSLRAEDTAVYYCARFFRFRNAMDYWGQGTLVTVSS VL: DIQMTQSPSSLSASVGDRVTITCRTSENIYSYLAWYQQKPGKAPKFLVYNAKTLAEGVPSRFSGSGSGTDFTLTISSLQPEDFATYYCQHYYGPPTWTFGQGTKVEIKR ... 0.29

Next binder, Dissociation % to be filled in.
**Query** Please give the measured Dissociation % for this binder: huC2C1A1A1-V11 (antibody, human IgG4, V domains shown, Humanized, human IgG4/kappa) VH: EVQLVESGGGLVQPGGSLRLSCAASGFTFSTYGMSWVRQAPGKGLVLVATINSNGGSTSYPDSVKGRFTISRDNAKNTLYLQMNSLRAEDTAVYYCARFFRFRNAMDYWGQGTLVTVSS VL: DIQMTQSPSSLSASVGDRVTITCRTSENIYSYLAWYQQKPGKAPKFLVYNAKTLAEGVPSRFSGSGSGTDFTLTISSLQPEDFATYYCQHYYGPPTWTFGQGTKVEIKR
**Result** -0.92
